Where do the numbers come from? From the supplement of paper PMC3545927.

# targetDesc: furin, P09958;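 also: purified furin at 1:10 enzyme:substrate in 50 mM HEPES pH 7.5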
# Sequence (P09958 whole entry): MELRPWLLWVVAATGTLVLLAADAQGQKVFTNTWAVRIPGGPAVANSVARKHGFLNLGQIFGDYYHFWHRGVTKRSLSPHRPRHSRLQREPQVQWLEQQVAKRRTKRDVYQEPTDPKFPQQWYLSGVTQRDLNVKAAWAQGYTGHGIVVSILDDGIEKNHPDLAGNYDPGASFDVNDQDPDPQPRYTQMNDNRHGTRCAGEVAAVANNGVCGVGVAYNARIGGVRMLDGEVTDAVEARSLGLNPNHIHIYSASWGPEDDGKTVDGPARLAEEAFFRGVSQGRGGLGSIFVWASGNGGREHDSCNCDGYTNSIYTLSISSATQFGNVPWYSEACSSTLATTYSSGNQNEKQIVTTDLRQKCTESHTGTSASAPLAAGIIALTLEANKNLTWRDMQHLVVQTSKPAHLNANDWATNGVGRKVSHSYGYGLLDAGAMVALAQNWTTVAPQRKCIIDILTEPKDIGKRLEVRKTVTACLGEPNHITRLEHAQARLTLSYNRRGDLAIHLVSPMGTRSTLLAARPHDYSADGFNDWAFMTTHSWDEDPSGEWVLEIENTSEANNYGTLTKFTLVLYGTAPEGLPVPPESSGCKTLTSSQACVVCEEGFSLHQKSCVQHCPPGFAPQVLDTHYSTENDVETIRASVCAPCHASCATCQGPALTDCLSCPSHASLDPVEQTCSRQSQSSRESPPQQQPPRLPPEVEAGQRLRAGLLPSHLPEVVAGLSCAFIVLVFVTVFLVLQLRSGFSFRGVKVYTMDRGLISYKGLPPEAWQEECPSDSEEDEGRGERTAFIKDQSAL
# testSummary: furin cleavage Z-score vs untreated control; higher = more cleavage, active = 3.5 or more, inactive = 1 or less, 8 variable residues between constant flanks
# conditionNotes: 15 min
The other results are listed elsewhere or left out. The true hit rate is not given.
Listed here are sequences together with their documented furin cleavage Z-score.
Kindly provide the number alone.

*Q* Name the reported furin cleavage Z-score value associated with the sequence CAHYQDVLKEAGNASASA [HC1402]
*A* -0.493

*Q* Name the reported furin cleavage Z-score value associated with the sequence CAILSRAKRPAGNASASA [FS-252]
*A* -1.38
